Cited source for all entries: PubChem BioAssay (NCI)

Test Method Notes: NCI Yeast Anticancer Drug Screen. Data for the mec2-1 strain (AID 157)
Condition: S. cerevisiae mec2-1 strain, at 50.0 µM, stronger effect = higher value
The panel holds about 79,000 compounds, 15% with a hit somewhere; the sample as a whole holds those more often.
Please use Condition met whenever growth inhibition is not below -10%, and Condition not met whenever it is.

- Structure String: "CC(=O)Nc1ccc(Nc2nc(=O)[nH]c(=O)[nH]2)cc1"
  Class Name: "Condition not met"
- Structure String: "Cc1nc2ccccc2c(=O)n1NC(=S)Nc1ccccc1"
  Class Name: "Condition not met"
- Structure String: "N#Cc1ccc(Cl)cc1C#N"
  Class Name: "Condition met"
- Structure String: "CCc1ccc2c(c1)CCC(=O)O2"
  Class Name: "Condition not met"
- Structure String: "O=C(Nc1cccc(C(F)(F)F)c1)c1ccco1"
  Class Name: "Condition met"
- Structure String: "Cc1[nH]c2c(O)ccc(O)c2c1C"
  Class Name: "Condition met"
- Structure String: "O=c1[nH]c(=S)[nH]c2[nH]ccc12"
  Class Name: "Condition not met"
